target: human glucagon receptor (human) (UniProt P47871); assay: cell-based or functional assay
Sequence (P47871 26-477): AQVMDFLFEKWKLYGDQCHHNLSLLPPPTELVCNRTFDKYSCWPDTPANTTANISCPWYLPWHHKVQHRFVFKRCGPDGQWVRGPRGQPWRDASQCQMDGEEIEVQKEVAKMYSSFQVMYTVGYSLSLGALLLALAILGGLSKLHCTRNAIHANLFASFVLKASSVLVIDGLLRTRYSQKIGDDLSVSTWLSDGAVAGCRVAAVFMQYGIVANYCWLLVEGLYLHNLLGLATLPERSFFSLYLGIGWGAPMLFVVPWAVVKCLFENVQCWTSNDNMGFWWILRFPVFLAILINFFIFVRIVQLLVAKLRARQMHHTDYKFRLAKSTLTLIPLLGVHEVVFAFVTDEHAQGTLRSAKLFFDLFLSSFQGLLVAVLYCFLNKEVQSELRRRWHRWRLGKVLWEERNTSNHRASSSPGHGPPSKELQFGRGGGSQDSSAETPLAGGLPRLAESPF
Starred links: 1 amine or outer side, 2 acyl side, 3 side chain; linkers in the order of their positions; H or OH if unused. Non-standard residues stand in square brackets, D forms with d. Groups on a side chain read outwards from the residue. No end group written: not given here. *: point of attachment. C18 diacid = O=C(O)CCCCCCCCCCCCCCCCC(=O)*; γGlu = O=C(O)[C@H](CCC(=O)[*:2])N[*:1]; αMeL = CC(C)C[C@](C)(N)C(=O)O; Dap = NC[C@H](N)C(=O)O; AEEA = NCCOCCOCC(=O)O; Aib = CC(C)(N)C(=O)O
Binarize cAMP Rel EC50, nM (in the presence of 1% HSA) at 1000 nM; below is Y, at or above is N.

Known results for binders:
binder	className
YXQGTFTSDFSXXLDKKAQXAFIEYLLEGGPSSGAPPPGGSG (synthetic construct; SITE 2: note = 2-Aminoisobutyric Acid; SITE 12: note = L-ornithine; SITE 13: note = alpha-methyl-leucine; SITE 17: note = Lysine is chemically modified through conjugation of the epsilon-amino group of the Lysine side chain with (2-[2-(2-Amino-ethoxy)-ethoxy]-acetyl)-(gamma-Glu)) [Example 64]	Y
YXQGTFTSDFSKXLDKKAQXAFIEYLLEGGPSSGAPPPSEG (not fully specified; synthetic construct; SITE 2: note = 2-Aminoisobutyric Acid; SITE 13: note = alpha-methyl-leucine; SITE 17: note = Lysine is chemically modified through conjugation of the epsilon-amino group of the Lysine side chain with (2-[2-(2-Amino-ethoxy)-ethoxy]-acetyl)-(gamma-Glu)-CO-(CH2) 16-CO2H; SITE 20: n) [Example 48]	Y
YXQGTFTSDFSKXLDKKAQXAFIEYLLEXGPSSGAPPPSEG (synthetic construct; SITE 2: note = 2-Aminoisobutyric Acid; SITE 13: note = alpha-methyl-leucine; SITE 17: note = Lysine is chemically modified through conjugation of the epsilon-amino group of the Lysine side chain with (2-[2-(2-Amino-ethoxy)-ethoxy]-acetyl)-(gamma-Glu)-CO-(CH2) 16-CO2H; SITE 20: n) [Example 57]	Y
YXQGTFTSDFSKXLDKKAQXAFIEYLLEGGPSSGAPPPXEG (synthetic construct; SITE 2: note = 2-Aminoisobutyric Acid; SITE 13: note = alpha-methyl-leucine; SITE 17: note = Lysine is chemically modified through conjugation of the epsilon-amino group of the Lysine side chain with (2-[2-(2-Amino-ethoxy)-ethoxy]-acetyl)-(gamma-Glu)-CO-(CH2) 18-CO2H; SITE 20: n) [Example 52]	N
YXQGTFTSDFSXXLDKKAQXAFIEYLLEGGESSGAPPPSGS (synthetic construct; SITE 2: note = 2-Aminoisobutyric Acid; SITE 12: note = L-ornithine; SITE 13: note = alpha-methyl-leucine; SITE 17: note = Lysine is chemically modified through conjugation of the epsilon-amino group of the Lysine side chain with (2-[2-(2-Amino-ethoxy)-ethoxy]-acetyl)-(gamma-Glu)) [Example 145]	Y
YXQGTFTSDFSXXLDKKAQXAFIEYLLEAGPSSGEPPPSGE (synthetic construct; SITE 2: note = 2-Aminoisobutyric Acid; SITE 12: note = L-ornithine; SITE 13: note = alpha-methyl-leucine; SITE 17: note = Lysine is chemically modified through conjugation of the epsilon-amino group of the Lysine side chain with (2-[2-(2-Amino-ethoxy)-ethoxy]-acetyl)2-(gamma-Glu)) [Example 117]	Y
YXQGTFTSDFSXXLDKKAQXQFIEYLLAGGPSSGAPPPEGS (synthetic construct; SITE 2: note = 2-Aminoisobutyric Acid; SITE 12: note = L-ornithine; SITE 13: note = alpha-methyl-leucine; SITE 17: note = Lysine is chemically modified through conjugation of the epsilon-amino group of the Lysine side chain with (2-[2-(2-Amino-ethoxy)-ethoxy]-acetyl)-(gamma-Glu)) [Example 96]	N
YXQGTFTSDFSXXLDKKAQXAFIEYLLAGGPSSGEPPPEGE (synthetic construct; SITE 2: note = 2-Aminoisobutyric Acid; SITE 12: note = L-ornithine; SITE 13: note = alpha-methyl-leucine; SITE 17: note = Lysine is chemically modified through conjugation of the epsilon-amino group of the Lysine side chain with (2-[2-(2-Amino-ethoxy)-ethoxy]-acetyl)-(gamma-Glu)) [Example 98]	Y
YXQGTFTSDFSXXLDKKAQXAFIEYLLEGGPSSGAPPPGES (synthetic construct; SITE 2: note = 2-Aminoisobutyric Acid; SITE 12: note = L-ornithine; SITE 13: note = alpha-methyl-leucine; SITE 17: note = Lysine is chemically modified through conjugation of the epsilon-amino group of the Lysine side chain with (2-[2-(2-Amino-ethoxy)-ethoxy]-acetyl)2-(gamma-Glu)) [Example 118]	N
YXQGTFTSDFSKXLDKKAQXAFIEYLLEGGPSSGAPPPSEGX (synthetic construct; SITE 2: note = 2-Aminoisobutyric Acid; SITE 13: note = alpha-methyl-leucine; SITE 17: note = Lysine is chemically modified through conjugation of the epsilon-amino group of the Lysine side chain with (2-[2-(2-Amino-ethoxy)-ethoxy]-acetyl)-(gamma-Glu)-CO-(CH2) 16-CO2H; SITE 20: n) [Example 56]	Y

### Prompt Is the reported cAMP Rel EC50, nM (in the presence of 1% HSA) for YXQGTFTSDFSXXLDKKAQXAFIEYLLAGGPSSGAPPPSGS (synthetic construct; SITE 2: note = 2-Aminoisobutyric Acid; SITE 12: note = L-ornithine; SITE 13: note = alpha-methyl-leucine; SITE 17: note = Lysine is chemically modified through conjugation of the epsilon-amino group of the Lysine side chain with (2-[2-(2-Amino-ethoxy)-ethoxy]-acetyl)-(gamma-Glu)) [Example 76] strictly below 1000 nM?
### Response N

### Prompt Is the reported cAMP Rel EC50, nM (in the presence of 1% HSA) for YXQGTFTSDFSXXLDKKAQXAFIEWLLEGGPSSGAXPPSGE (synthetic construct; SITE 2: note = 2-Aminoisobutyric Acid; SITE 12: note = L-ornithine; SITE 13: note = alpha-methyl-leucine; SITE 17: note = Lysine is chemically modified through conjugation of the epsilon-amino group of the Lysine side chain with (2-[2-(2-Amino-ethoxy)-ethoxy]-acetyl)-(gamma-Glu)) [Example 136] strictly below 1000 nM?
### Response Y

### Prompt Is the reported cAMP Rel EC50, nM (in the presence of 1% HSA) for YXQGTFTSDXSRXLDKKAQXAFIEYLLEXGPSSGAPPPSGE (synthetic construct; SITE 2: note = 2-Aminoisobutyric Acid; SITE 10: note = 3-(4-Pyridyl)-L-alanine; SITE 13: note = alpha-methyl-leucine; SITE 17: note = Lysine is chemically modified through conjugation of the epsilon-amino group of the Lysine side chain with (2-[2-(2-Amino-ethoxy)-ethoxy]-acetyl)) [Example 114] strictly below 1000 nM?
### Response N

### Prompt Is the reported cAMP Rel EC50, nM (in the presence of 1% HSA) for YXQGTFTSDFSRXLDKKAQXAFIEYLLEGGPSSGAPPPSGS (synthetic construct; SITE 2: note = 2-Aminoisobutyric Acid; SITE 13: note = alpha-methyl-leucine; SITE 17: note = Lysine is chemically modified through conjugation of the epsilon-amino group of the Lysine side chain with (2-[2-(2-Amino-ethoxy)-ethoxy]-acetyl)2-(gamma-Glu)-CO-(CH2 )16-CO2H; SITE 20:) [Example 144] strictly below 1000 nM?
### Response N

### Prompt Is the reported cAMP Rel EC50, nM (in the presence of 1% HSA) for YXQGTFTSDFSXXLDKKAQXAFIEWLLEGGHSSGAPPPEGS (synthetic construct; SITE 2: note = 2-Aminoisobutyric Acid; SITE 12: note = L-ornithine; SITE 13: note = alpha-methyl-leucine; SITE 17: note = Lysine is chemically modified through conjugation of the epsilon-amino group of the Lysine side chain with (2-[2-(2-Amino-ethoxy)-ethoxy]-acetyl)-(gamma-Glu)) [Example 126] strictly below 1000 nM?
### Response N

### Prompt Is the reported cAMP Rel EC50, nM (in the presence of 1% HSA) for YXQGTFTSDFSXXLDKKAQXAFIEYLLAGGPSSGEPPPSGS (synthetic construct; SITE 2: note = 2-Aminoisobutyric Acid; SITE 12: note = L-ornithine; SITE 13: note = alpha-methyl-leucine; SITE 17: note = Lysine is chemically modified through conjugation of the epsilon-amino group of the Lysine side chain with (2-[2-(2-Amino-ethoxy)-ethoxy]-acetyl)-(gamma-Glu)) [Example 94] strictly below 1000 nM?
### Response N

### Prompt Is the reported cAMP Rel EC50, nM (in the presence of 1% HSA) for Y[Aib]QGTFTSDFS[Dap][αMeL]LDKK([AEEA-γGlu-C18 diacid])AQ[Aib]AFIEYLLE[Aib]GPSSGAPPPSGS-NH2 (ends and bridges not checked) [Example 134] strictly below 1000 nM?
### Response N

### Prompt Is the reported cAMP Rel EC50, nM (in the presence of 1% HSA) for YXQGTFTSDFSXXLDKKAQXAFIEYLLAGGPSSGAPPPSEG (synthetic construct; SITE 2: note = 2-Aminoisobutyric Acid; SITE 12: note = L-ornithine; SITE 13: note = alpha-methyl-leucine; SITE 17: note = Lysine is chemically modified through conjugation of the epsilon-amino group of the Lysine side chain with (2-[2-(2-Amino-ethoxy)-ethoxy]-acetyl)-(gamma-Glu)) [Example 60] strictly below 1000 nM?
### Response N

All figures here come from patent US20240270821A1.
